Molecular target: T1, human plasmin (Homo sapiens, UniProt P00747)
T1 chain: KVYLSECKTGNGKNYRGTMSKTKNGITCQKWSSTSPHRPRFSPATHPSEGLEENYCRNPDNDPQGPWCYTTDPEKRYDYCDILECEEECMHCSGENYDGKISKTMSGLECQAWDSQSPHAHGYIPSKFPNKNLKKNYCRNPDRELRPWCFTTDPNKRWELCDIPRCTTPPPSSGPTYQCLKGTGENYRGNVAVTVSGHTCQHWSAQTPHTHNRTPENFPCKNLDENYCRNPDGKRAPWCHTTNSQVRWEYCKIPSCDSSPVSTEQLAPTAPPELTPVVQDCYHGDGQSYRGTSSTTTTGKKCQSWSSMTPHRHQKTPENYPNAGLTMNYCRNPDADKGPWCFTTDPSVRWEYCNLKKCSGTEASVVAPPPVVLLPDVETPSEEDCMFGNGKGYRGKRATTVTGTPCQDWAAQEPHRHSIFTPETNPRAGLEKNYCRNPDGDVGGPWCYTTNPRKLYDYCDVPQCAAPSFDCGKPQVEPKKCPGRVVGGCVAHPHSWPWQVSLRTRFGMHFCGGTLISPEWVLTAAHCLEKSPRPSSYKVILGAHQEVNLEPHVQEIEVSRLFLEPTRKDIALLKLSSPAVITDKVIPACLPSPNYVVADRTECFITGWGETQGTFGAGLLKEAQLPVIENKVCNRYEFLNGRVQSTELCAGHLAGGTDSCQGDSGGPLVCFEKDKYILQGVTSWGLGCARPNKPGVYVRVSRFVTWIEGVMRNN
measured property: Kd

Determine its reported Kd: SPI23 (protein) MHSFCAFKAEGGPCRAKFQRWFFNIFTRQCEEFIYGGCEGNQNRFESLEECKKMCTRD ~0.5 nM

Determine its reported Kd: SPI22 (protein) MHSFCAFKADGGPCKGKFPRFFFNIFTRQCEEFIYGGCEGNQNRFESLEECKKMCTRD > 2 nM
